Target: human glucagon receptor (human) (UniProt P47871)
Sequence (P47871 26-477): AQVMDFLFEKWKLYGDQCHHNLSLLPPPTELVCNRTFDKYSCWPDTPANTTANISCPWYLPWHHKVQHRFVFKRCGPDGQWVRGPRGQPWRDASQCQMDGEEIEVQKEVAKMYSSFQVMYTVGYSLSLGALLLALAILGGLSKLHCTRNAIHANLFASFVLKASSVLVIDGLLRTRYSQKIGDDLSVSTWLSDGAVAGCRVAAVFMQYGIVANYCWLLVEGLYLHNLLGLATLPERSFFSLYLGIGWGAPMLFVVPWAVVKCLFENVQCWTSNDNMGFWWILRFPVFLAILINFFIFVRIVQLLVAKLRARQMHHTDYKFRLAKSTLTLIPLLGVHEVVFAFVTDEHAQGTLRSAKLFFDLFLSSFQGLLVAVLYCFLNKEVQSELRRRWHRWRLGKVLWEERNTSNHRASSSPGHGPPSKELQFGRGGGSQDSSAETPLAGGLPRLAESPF
Assay: cell-based or functional assay
Decision: Relative cAMP EC50, nM (0.1% casein) beneath 5 nM gives Y; Relative cAMP EC50, nM (0.1% casein) meeting or exceeding 5 nM gives N.

Does the reported Relative cAMP EC50, nM (0.1% casein) of the following binder sit strictly below 5 nM? YXQGTXTSDXXILLDKKAQXAFIEYLEEGGPSSGAPPPE (synthetic construct; SITE 2: note = 2-Aminoisobutyric Acid; SITE 6: note = alpha-methyl-2-fluoro-L-phenylalanine; SITE 10: note = 3-(3-Pyridyl)-L-alanine; SITE 11: note = alpha-methyl-L-serine; SITE 17: note = Lysine is chemically modified through conjugation of the epsilon-amino group of the Lysine) [Example 465]
Y

Does the reported Relative cAMP EC50, nM (0.1% casein) of the following binder sit strictly below 5 nM? YXQGTXTSDYSIXLDKIAQXAFIKYLEEGGPSSGAPPPS (synthetic construct; SITE 2: note = 2-Aminoisobutyric Acid; SITE 6: note = alpha-methyl-2-fluoro-L-phenylalanine; SITE 13: note = alpha-methyl-leucine; SITE 20: note = 2-Aminoisobutyric Acid; SITE 24: note = Lysine is chemically modified through conjugation of the epsilon-amino group of the Lysine s) [Example 455]
Y

Does the reported Relative cAMP EC50, nM (0.1% casein) of the following binder sit strictly below 5 nM? YXQGTFTSDFSXXLDKKAQXAFIEYLLEGGHSSGEPPPGGS (non-natural residues; lipidated Lys AEEA-γGlu-C18 diacid; C-term amide; synthetic construct; SITE 2: note = 2-Aminoisobutyric Acid; SITE 12: note = L-ornithine; SITE 13: note = alpha-methyl-leucine; SITE 17: note = Lysine is chemically modified through conjugation of the epsilon-amino group of the Lysine side chain with (2-[2-(2-Amino-ethoxy)-ethoxy]-acetyl)-(gamma-Glu)) [Example 164]
Y

Does the reported Relative cAMP EC50, nM (0.1% casein) of the following binder sit strictly below 5 nM? YXQGTXTSDXXIXLDXKAQXXFIEXLIEGGPSSGEPPPE (synthetic construct; SITE 2: note = 2-Aminoisobutyric Acid; SITE 6: note = alpha-methyl-2-fluoro-L-phenylalanine; SITE 10: note = 3-(4-Pyridyl)-L-alanine; SITE 11: note = alpha-methyl-L-serine; SITE 13: note = alpha-methyl-leucine; SITE 16: note = L-ornithine; SITE 17: note = Lysine is chemically mo) [Example 453]
N

Does the reported Relative cAMP EC50, nM (0.1% casein) of the following binder sit strictly below 5 nM? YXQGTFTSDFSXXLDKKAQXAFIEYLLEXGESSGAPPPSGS (non-natural residues (Aib, Orn, αMeL); lipidated K; C-terminal amide; synthetic construct; SITE 2: note = 2-Aminoisobutyric Acid; SITE 12: note = L-ornithine; SITE 13: note = alpha-methyl-leucine; SITE 17: note = Lysine is chemically modified through conjugation of the epsilon-amino group of the Lysine side chain with (2-[2-(2-Amino-ethoxy)-ethoxy]-acetyl)2-(gamma-Glu)) [Example 179]
Y

Does the reported Relative cAMP EC50, nM (0.1% casein) of the following binder sit strictly below 5 nM? YXQGTFTSDFSQXLDKKAQXAFIEYLLEGGPSSGAPPPSGS (Aib, αMeL; lipidated Lys; C-terminal amide; synthetic construct; SITE 2: note = 2-Aminoisobutyric Acid; SITE 13: note = alpha-methyl-leucine; SITE 17: note = Lysine is chemically modified through conjugation of the epsilon-amino group of the Lysine side chain with (2-[2-(2-Amino-ethoxy)-ethoxy]-acetyl)-(gamma-Glu)-CO-(CH2) 16-CO2H; SITE 20: n) [Example 150]
N

Does the reported Relative cAMP EC50, nM (0.1% casein) of the following binder sit strictly below 5 nM? YXQGTXTSDXXEXLDXKAQXXFIEXLIEGGPSSGEPPPE (synthetic construct; SITE 2: note = 2-Aminoisobutyric Acid; SITE 6: note = alpha-methyl-2-fluoro-L-phenylalanine; SITE 10: note = 3-(4-Pyridyl)-L-alanine; SITE 11: note = alpha-methyl-L-serine; SITE 13: note = alpha-methyl-leucine; SITE 16: note = L-ornithine; SITE 17: note = Lysine is chemically mo) [Example 447]
N

Does the reported Relative cAMP EC50, nM (0.1% casein) of the following binder sit strictly below 5 nM? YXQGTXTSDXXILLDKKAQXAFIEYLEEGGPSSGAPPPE (synthetic construct; SITE 2: note = 2-Aminoisobutyric Acid; SITE 6: note = alpha-methyl-2-fluoro-L-phenylalanine; SITE 10: note = 3-(4-Pyridyl)-L-alanine; SITE 11: note = alpha-methyl-L-serine; SITE 17: note = Lysine is chemically modified through conjugation of the epsilon-amino group of the Lysine) [Example 464]
Y

Does the reported Relative cAMP EC50, nM (0.1% casein) of the following binder sit strictly below 5 nM? YXQGTXTSDXXIXLDXKAQXXFIEYLLEGGPSSGEPPPE (synthetic construct; SITE 2: note = 2-Aminoisobutyric Acid; SITE 6: note = alpha-methyl-2-fluoro-L-phenylalanine; SITE 10: note = 3-(4-Pyridyl)-L-alanine; SITE 11: note = alpha-methyl-L-serine; SITE 13: note = alpha-methyl-leucine; SITE 16: note = L-ornithine; SITE 17: note = Lysine is chemically mo) [Example 460]
Y

Does the reported Relative cAMP EC50, nM (0.1% casein) of the following binder sit strictly below 5 nM? YXQGTFTSDXSXXLDKKAQXAFIEYLLAGGPSSGEPPPSGS (Aib, 4Pal, Orn, αMeL; lipidated Lys; C-terminal amide; synthetic construct; SITE 2: note = 2-Aminoisobutyric Acid; SITE 10: note = 3-(4-Pyridyl)-L-alanine; SITE 12: note = L-ornithine; SITE 13: note = alpha-methyl-leucine; SITE 17: note = Lysine is chemically modified through conjugation of the epsilon-amino group of the Lysine side chain with (2-[2-(2-) [Example 154]
N

Does the reported Relative cAMP EC50, nM (0.1% casein) of the following binder sit strictly below 5 nM? YXQGTFTSDFSXXLDKKAQXAFIEWLLEGGSSSGAPPPSGT (non-natural residues, acylated Lys, C-terminal amide; synthetic construct; SITE 2: note = 2-Aminoisobutyric Acid; SITE 12: note = L-ornithine; SITE 13: note = alpha-methyl-leucine; SITE 17: note = Lysine is chemically modified through conjugation of the epsilon-amino group of the Lysine side chain with (2-[2-(2-Amino-ethoxy)-ethoxy]-acetyl)-(gamma-Glu)) [Example 174]
Y

Does the reported Relative cAMP EC50, nM (0.1% casein) of the following binder sit strictly below 5 nM? YXQGTXTSDXSIXLDXKAQXXFIEYLIEGGPSSGEPPPSEG (synthetic construct; SITE 2: note = 2-Aminoisobutyric Acid; SITE 6: note = alpha-methyl-2-fluoro-L-phenylalanine; SITE 10: note = 3-(4-Pyridyl)-L-alanine; SITE 13: note = alpha-methyl-leucine; SITE 16: note = L-ornithine; SITE 17: note = Lysine is chemically modified through conjugation of the epsil) [Example 489]
Y

Does the reported Relative cAMP EC50, nM (0.1% casein) of the following binder sit strictly below 5 nM? YXQGTXTSDXSILLDXIAQXAFIKYLEEGGPSSGAPPPS (synthetic construct; SITE 2: note = 2-Aminoisobutyric Acid; SITE 6: note = alpha-methyl-2-fluoro-L-phenylalanine; SITE 10: note = 3-(4-Pyridyl)-L-alanine; SITE 16: note = L-ornithine; SITE 20: note = 2-Aminoisobutyric Acid; SITE 24: note = Lysine is chemically modified through conjugation of the eps) [Example 454]
N

Does the reported Relative cAMP EC50, nM (0.1% casein) of the following binder sit strictly below 5 nM? YXQGTXTSDYSILLDKKAQXAFIEYLEEGGPSSGAPPPEEG (synthetic construct; SITE 2: note = 2-Aminoisobutyric Acid; SITE 6: note = alpha-methyl-2-fluoro-L-phenylalanine; SITE 17: note = Lysine is chemically modified through conjugation of the epsilon-amino group of the Lysine side chain with (gamma-Glu)2-CO-(CH2)16-CO2H; SITE 20: note = 2-Aminoisobutyric) [Example 471]
Y

Does the reported Relative cAMP EC50, nM (0.1% casein) of the following binder sit strictly below 5 nM? YXQGTFTSDFSXXLDKKAQXAFIEYLLEAGPSSGEPPPSGS (non-natural residues; lysine acylated with AEEA linker C18 diacid; C-amide; synthetic construct; SITE 2: note = 2-Aminoisobutyric Acid; SITE 12: note = L-ornithine; SITE 13: note = alpha-methyl-leucine; SITE 17: note = Lysine is chemically modified through conjugation of the epsilon-amino group of the Lysine side chain with (2-[2-(2-Amino-ethoxy)-ethoxy]-acetyl)2-(gamma-Glu)) [Example 155]
N

Does the reported Relative cAMP EC50, nM (0.1% casein) of the following binder sit strictly below 5 nM? YXQGTFTSDFSXXLDKKAQXAFIEYLLEXGXSSGAPPPSGT (non-natural residues, acylated Lys, C-terminal amide; synthetic construct; SITE 2: note = 2-Aminoisobutyric Acid; SITE 12: note = L-ornithine; SITE 13: note = alpha-methyl-leucine; SITE 17: note = Lysine is chemically modified through conjugation of the epsilon-amino group of the Lysine side chain with (2-[2-(2-Amino-ethoxy)-ethoxy]-acetyl)2-(gamma-Glu)) [Example 184]
N

Does the reported Relative cAMP EC50, nM (0.1% casein) of the following binder sit strictly below 5 nM? YXQGTXTSDXXIXLDXKAQXNFIEXLIEGGPSSGEPEPEEG (synthetic construct; SITE 2: note = 2-Aminoisobutyric Acid; SITE 6: note = alpha-methyl-2-fluoro-L-phenylalanine; SITE 10: note = 3-(4-Pyridyl)-L-alanine; SITE 11: note = alpha-methyl-L-serine; SITE 13: note = alpha-methyl-leucine; SITE 16: note = L-ornithine; SITE 17: note = Lysine is chemically mo) [Example 474]
Y

Does the reported Relative cAMP EC50, nM (0.1% casein) of the following binder sit strictly below 5 nM? YXQGTFTSDFSXXLDKKAQXAFIEYLLEAGPSSGEPPPSGT ((AEEA)2-γGlu-C18 diacid on Lys; non-natural residues; amide; synthetic construct; SITE 2: note = 2-Aminoisobutyric Acid; SITE 12: note = L-ornithine; SITE 13: note = alpha-methyl-leucine; SITE 17: note = Lysine is chemically modified through conjugation of the epsilon-amino group of the Lysine side chain with (2-[2-(2-Amino-ethoxy)-ethoxy]-acetyl)2-(gamma-Glu)) [Example 156]
Y

Does the reported Relative cAMP EC50, nM (0.1% casein) of the following binder sit strictly below 5 nM? YXQGTXTSDXSIXLDXKAQXXFIEYLIEGGPSSGEPPPEEG (synthetic construct; SITE 2: note = 2-Aminoisobutyric Acid; SITE 6: note = alpha-methyl-2-fluoro-L-phenylalanine; SITE 10: note = 3-(4-Pyridyl)-L-alanine; SITE 13: note = alpha-methyl-leucine; SITE 16: note = L-ornithine; SITE 17: note = Lysine is chemically modified through conjugation of the epsil) [Example 477]
N

Does the reported Relative cAMP EC50, nM (0.1% casein) of the following binder sit strictly below 5 nM? HXQGTXTSDXXIXLDXKAQXAFIEYLLEGGPSSGEPPPE (synthetic construct; SITE 2: note = 2-Aminoisobutyric Acid; SITE 6: note = alpha-methyl-2-fluoro-L-phenylalanine; SITE 10: note = 3-(4-Pyridyl)-L-alanine; SITE 11: note = alpha-methyl-L-serine; SITE 13: note = alpha-methyl-leucine; SITE 16: note = L-ornithine; SITE 17: note = Lysine is chemically mo) [Example 466]
N

Does the reported Relative cAMP EC50, nM (0.1% casein) of the following binder sit strictly below 5 nM? YXQGTFTSDFSXXLDKKAQXAFIEYLLEXGPSSGAPPPEGS (Aib, Orn, αMeL; acylated lysine; C-terminal amide; synthetic construct; SITE 2: note = 2-Aminoisobutyric Acid; SITE 12: note = L-ornithine; SITE 13: note = alpha-methyl-leucine; SITE 17: note = Lysine is chemically modified through conjugation of the epsilon-amino group of the Lysine side chain with (2-[2-(2-Amino-ethoxy)-ethoxy]-acetyl)2-(gamma-Glu)) [Example 194]
Y

Does the reported Relative cAMP EC50, nM (0.1% casein) of the following binder sit strictly below 5 nM? YXQGTXTSDYXELLDKKAQXAFIEYLEEGGPSSGAPPPE (synthetic construct; SITE 2: note = 2-Aminoisobutyric Acid; SITE 6: note = alpha-methyl-2-fluoro-L-phenylalanine; SITE 11: note = alpha-methyl-L-serine; SITE 17: note = Lysine is chemically modified through conjugation of the epsilon-amino group of the Lysine side chain with (2-[2-(2-Amino-ethoxy)-e)) [Example 467]
N

Does the reported Relative cAMP EC50, nM (0.1% casein) of the following binder sit strictly below 5 nM? YXQGTXTSDXXIXLDXKAQXXFIEYLIEGGPSSGAPEPSEG (synthetic construct; SITE 2: note = 2-Aminoisobutyric Acid; SITE 6: note = alpha-methyl-2-fluoro-L-phenylalanine; SITE 10: note = 3-(4-Pyridyl)-L-alanine; SITE 11: note = alpha-methyl-L-serine; SITE 13: note = alpha-methyl-leucine; SITE 16: note = L-ornithine; SITE 17: note = Lysine is chemically mo) [Example 492]
Y
